# study.target: human IP6K1 (Homo sapiens, UniProt Q92551)
# Construct: human IP6K1 (1-441) gene; GST; made in house; host or cells: Sf-9 insect cells
# Sequence (Q92551 whole entry): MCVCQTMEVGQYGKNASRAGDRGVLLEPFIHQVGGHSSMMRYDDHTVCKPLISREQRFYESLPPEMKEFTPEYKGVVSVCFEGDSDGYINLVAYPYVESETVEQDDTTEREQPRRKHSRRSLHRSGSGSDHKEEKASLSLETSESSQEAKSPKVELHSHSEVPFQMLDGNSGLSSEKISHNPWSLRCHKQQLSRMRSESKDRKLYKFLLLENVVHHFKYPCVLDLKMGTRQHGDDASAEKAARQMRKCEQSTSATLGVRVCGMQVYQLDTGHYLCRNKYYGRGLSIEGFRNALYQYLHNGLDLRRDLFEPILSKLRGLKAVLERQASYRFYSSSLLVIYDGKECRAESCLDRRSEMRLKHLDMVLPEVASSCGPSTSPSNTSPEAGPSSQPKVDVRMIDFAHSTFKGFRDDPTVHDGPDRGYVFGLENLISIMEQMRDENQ
# assay.notes: IP6K enzyme inhibitory assay (ADP-Glo Kinase Assay), human IP6K1
# Type: biochemical
# measurement.setup: compound concentration 0.1 μM; read-out: ADP-Glo method inhibitory rate (%) human IP6K1
assay.metric: inhibition at 0.1 µM (%)
Note: unit % is implicit; provide only the numeric part.

Some compounds with recorded inhibition at 0.1 µM:
INSERT INTO measurements (smiles_text, test_value) VALUES
  ('Cc1cccnc1O[C@H]1CC[C@@]2(CC1)C(=O)Nc1ccc(C(=O)O)cc12', 79),
  ('O=C(O)c1ccc2c(c1)[C@]1(CC[C@@H](Oc3ccccc3)CC1)C(=O)N2', 79),
  ('O=C(O)c1ccc2c(n1)[C@]1(CC[C@@H](Oc3ncc(C(F)(F)F)cc3Cl)CC1)C(=O)N2', 86),
  ('O=C(O)c1ccc2c(n1)[C@]1(CC[C@H](Oc3ncc(Cl)cc3F)CC1)C(=O)N2', 76),
  ('O=C(O)c1ccc2c(c1)[C@]1(CC[C@@H](Oc3cccc(C(F)(F)F)c3F)CC1)C(=O)N2', 94),
  ('Cc1ccc(C(F)(F)F)c(O[C@H]2CC[C@@]3(CC2)C(=O)Nc2ccc(C(=O)O)cc23)n1', 98);

Report value only: inhibition at 0.1 µM, human IP6K1 (Homo sapiens, UniProt Q92551), "O=C(O)c1ccc2c(n1)[C@]1(CC[C@H](Oc3ccccc3Cl)CC1)C(=O)N2" 81

Report value only: inhibition at 0.1 µM, human IP6K1 (Homo sapiens, UniProt Q92551), "O=C(O)c1ccc2c(n1)[C@]1(CC[C@H](Oc3ccc(Cl)cc3)CC1)C(=O)N2" 101

Report value only: inhibition at 0.1 µM, human IP6K1 (Homo sapiens, UniProt Q92551), "N#Cc1cccc(F)c1O[C@H]1CC[C@@]2(CC1)C(=O)Nc1ccc(C(=O)O)cc12" 95

Report value only: inhibition at 0.1 µM, human IP6K1 (Homo sapiens, UniProt Q92551), "O=C(O)c1ccc2c(c1)[C@]1(CC[C@@H](Oc3cnc4c(c3)CCCO4)CC1)C(=O)N2" 51

Attribution: patent US10968178B2
